# ASSAYED TARGET: human full-length MKNK1 (Homo sapiens (Human), UniProt Q9BUB5, T344D)
# Sequence (Q9BUB5 other isoform, or with tags, fused parts or gaps T344D): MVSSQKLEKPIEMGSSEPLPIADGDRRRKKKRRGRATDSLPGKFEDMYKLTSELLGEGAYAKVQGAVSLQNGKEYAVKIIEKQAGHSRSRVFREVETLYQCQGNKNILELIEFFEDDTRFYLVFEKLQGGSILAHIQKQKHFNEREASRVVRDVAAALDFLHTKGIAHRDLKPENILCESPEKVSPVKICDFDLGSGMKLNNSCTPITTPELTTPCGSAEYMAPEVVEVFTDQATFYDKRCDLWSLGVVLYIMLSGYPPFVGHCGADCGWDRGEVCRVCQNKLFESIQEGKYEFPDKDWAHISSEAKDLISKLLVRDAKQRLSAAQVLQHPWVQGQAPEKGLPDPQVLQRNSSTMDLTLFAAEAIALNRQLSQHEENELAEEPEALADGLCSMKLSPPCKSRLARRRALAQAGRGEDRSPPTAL
# ASSAY OVERVIEW: MKNK1 kinase high ATP assay (TR-FRET)
# TEST CONTEXT: high ATP (2 mM final), 15 min preincubation with MKNK1, TR-FRET
pIC50: −log10 of the molar value.
ENDPOINT NAME: pIC50

>>> print(df.to_string())
                              record_smiles  numeric_value
0  COc1cc2[nH]c(=O)sc2cc1Nc1ncnc2sc(CCc3ccccc3)nc12           5.00
1  COc1cc2[nH]ncc2cc1Nc1ncnc2sc(C(=O)N3CCCCC3)nc12           7.77
2  c1nc(Nc2ccc3[nH]ncc3c2)c2nc(C3CCCCC3)sc2n1           7.25
3          COc1cc2[nH]ncc2cc1Nc1ncnc2scnc12           7.33
4  O=c1[nH]c2ccc(Nc3ncnc4sc(C5CCC5)nc34)cc2s1           7.06

###

The entries below are paired with their reported IC50.
# ASSAYED TARGET: human full-length MKNK1 (Homo sapiens (Human), UniProt Q9BUB5, T344D)
# ASSAY OVERVIEW: MKNK1 kinase high ATP assay (TR-FRET)
# TEST CONTEXT: high ATP (2 mM final), 15 min preincubation with MKNK1, TR-FRET
# Protocol: MKNK1 Kinase High ATP Assay MKNK1-inhibitory activity at high ATP of compounds of the present invention after their preincubation with MKNK1 was quantified employing the TR-FRET-based MKNK1 high ATP assay as described in the following paragraphs. As substrate for the kinase reaction the biotinylated peptide biotin-Ahx-[…] (C-terminus in amide form) was used, which can be purchased e.g. from the company Biosyntan (Berlin-Buch, Germany). […]
ENDPOINT NAME: IC50 (nM)

>>> print(df.to_string())
                                   molecule  numeric_value
0  c1nc(Nc2ccc3[nH]ncc3c2)c2nc(C3CCC3)sc2n1 [Example 10]             54
1  COc1cc2[nH]ncc2cc1Nc1ncnc2sc(CCc3ccccc3)nc12 [Example 22]             38
2  CCOc1cc2[nH]ncc2cc1Nc1ncnc2sc(C(=O)N3CCCCC3)nc12 [Example 34]             34
3  O=C(c1nc2c(Nc3ccc4[nH]ncc4c3)ncnc2s1)N1CCCCC1 [Example 31]            188
4  COc1cc2[nH]ncc2cc1Nc1ncnc2sc(CCCC(=O)N(C)C)nc12 [Example 26]             85
5  CN(C)C(=O)CCc1nc2c(Nc3ccc4[nH]ncc4c3)ncnc2s1 [Example 21]            100

###

The entries below are paired with their reported IC50.
# ASSAYED TARGET: human full-length MKNK1 (Homo sapiens (Human), UniProt Q9BUB5, T344D)
# ASSAY OVERVIEW: MKNK1 kinase high ATP assay (TR-FRET)
# TEST CONTEXT: high ATP (2 mM final), 15 min preincubation with MKNK1, TR-FRET
# Experimental: MKNK1 Kinase High ATP Assay MKNK1-inhibitory activity at high ATP of compounds of the present invention after their preincubation with MKNK1 was quantified employing the TR-FRET-based MKNK1 high ATP assay as described in the following paragraphs. As substrate for the kinase reaction the biotinylated peptide biotin-Ahx-[…] (C-terminus in amide form) was used, which can be purchased e.g. from the company Biosyntan (Berlin-Buch, Germany). […]
ENDPOINT NAME: IC50 (nM)

>>> df
                                    molecule  endpoint_name  numeric_value
 0  CN(C)C(=O)CCN(C)C(=O)c1nc2c(Nc3ccc4[nH]c(=O)sc4c3)ncnc2s1 [Example 41]           IC50           2750
 1  CC1(O)CN(C(=O)CCc2nc3c(Nc4ccc5[nH]ncc5c4)ncnc3s2)C1 [Example 14]           IC50            126
 2  CC(C)Oc1cc2[nH]ncc2cc1Nc1ncnc2sc(C(=O)N3CCCCC3)nc12 [Example 35]           IC50            102
 3  c1nc(Nc2ccc3[nH]ncc3c2)c2ncsc2n1 [Example 16]           IC50            186
 4  COc1cc2[nH]ncc2cc1Nc1ncnc2sc(C(=O)N(C)CCC(=O)N(C)C)nc12 [Example 46]           IC50            184
 5  c1ccc(Cc2nc3c(Nc4ccc5[nH]ncc5c4)ncnc3s2)cc1 [Example 11]           IC50             35
 6  O=C(c1nc2c(Nc3ccc4[nH]c(=O)sc4c3)ncnc2s1)N1CCCCC1 [Example 32]           IC50            137
 7  O=c1[nH]c2ccc(Nc3ncnc4sc(CC5CC5)nc34)cc2s1 [Example 1]           IC50             37
 8  c1nc(Nc2ccc3[nH]ncc3c2)c2nc(CC3CC3)sc2n1 [Example 9]           IC50             36
 9  COc1cc2[nH]c(=O)sc2cc1Nc1ncnc2sc(C(=O)N(C)C)nc12 [Example 28]           IC50           1080
10  COc1cc2[nH]ncc2cc1Nc1ncnc2sc(COCc3ccccc3)nc12 [Example 20]           IC50             36
11  COc1cc2[nH]ncc2cc1Nc1ncnc2sc(Cc3ccccc3)nc12 [Example 4]           IC50             20
12  c1ccc(CCc2nc3c(Nc4ccc5[nH]ncc5c4)ncnc3s2)cc1 [Example 23]           IC50             51
13  O=c1[nH]c2ccc(Nc3ncnc4scnc34)cc2s1 [Example 19]           IC50            159
14  CCOc1cc2[nH]ncc2cc1Nc1ncnc2sc(C(=O)N(C)C)nc12 [Example 30]           IC50             42
15  COc1cc2[nH]c(=O)sc2cc1Nc1ncnc2sc(C3CCCCC3)nc12 [Example 7]           IC50            354
16  COc1cc2[nH]ncc2cc1Nc1ncnc2sc(C(=O)N(C)CC(=O)N(C)C)nc12 [Example 38]           IC50            136
17  CN(C)C(=O)c1nc2c(Nc3ccc4[nH]ncc4c3)ncnc2s1 [Example 43]           IC50            202
18  COCc1nc2c(Nc3cc4cn[nH]c4cc3OC)ncnc2s1 [Example 5]           IC50             25

Provenance of the data: patent US9675612B2
